EXPERIMENT NOTES: acute toxicity in mice, method of MILLER and TAINTER
TEST PARAMETERS: mouse, in vivo, ip, Table III
METRIC: LD50

[[record]]
compound = "COc1cc(N)c(Cl)cc1C(=S)N(C)C1CN2CCC1CC2 (stereo not shown) [compound 25]"
metric = "LD50"
result = "80 mg/kg"

[[record]]
compound = "COc1cc(N)c(Cl)cc1C(=O)N(C)C1CN2CCC1CC2 (stereo not shown) [compound 24]"
metric = "LD50"
result = "70 mg/kg"

[[record]]
compound = "COc1nc(N)ncc1C(=O)NC1CN2CCC1CC2 (stereo not shown) [Code number 1]"
metric = "LD50"
result = "300 mg/kg"

[[record]]
compound = "COc1cc(N)c(Cl)cc1C(=S)NC1CN2CCC1CC2 (stereo not shown) [compound 22]"
metric = "LD50"
result = "300 mg/kg"

